# Method: Metabolic stability in human liver microsomes
# Type: in vitro ADME
# Applied Conditions: some cells add hours in brackets
Experimental Readout: Metabolism HLM (min)
Express the result in min but write the number alone.

Input line: Quick check: Metabolism HLM of `COc1cc(-c2nc3ccc(C(=O)NCCCN4CCN(c5cccc(C)c5C)CC4)cc3n2C2CCC2)cc(OC)c1OC` ?
Output line: 0.5

----------
# Assay System: ACVR1^WT (Homo sapiens, UniProt Q04771)
# Sequence (Q04771 21-509): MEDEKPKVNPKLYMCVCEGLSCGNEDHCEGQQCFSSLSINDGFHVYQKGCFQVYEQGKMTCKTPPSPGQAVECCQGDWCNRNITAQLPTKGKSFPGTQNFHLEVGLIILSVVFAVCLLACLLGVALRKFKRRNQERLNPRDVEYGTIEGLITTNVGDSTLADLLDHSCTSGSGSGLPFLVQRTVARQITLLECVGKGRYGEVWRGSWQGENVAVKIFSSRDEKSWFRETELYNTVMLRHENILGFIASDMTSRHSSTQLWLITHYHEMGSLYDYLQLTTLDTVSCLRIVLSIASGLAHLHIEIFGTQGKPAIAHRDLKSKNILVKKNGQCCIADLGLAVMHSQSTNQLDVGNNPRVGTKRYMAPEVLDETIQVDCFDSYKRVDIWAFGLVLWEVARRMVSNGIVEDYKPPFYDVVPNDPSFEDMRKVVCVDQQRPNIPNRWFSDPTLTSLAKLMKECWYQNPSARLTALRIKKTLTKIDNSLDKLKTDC
# Method: Promega NanoBRET live-cell target engagement, ACVR1
# Applied Conditions: in cellulo; NI = No inhibition at 40 μM
Experimental Readout: pIC50
To interpret pIC50, take it as minus log10 of a concentration measured in moles per litre.

Input line: Looking for the measured pIC50 of `COc1cc(-c2nc3ccc(C(=O)NCC4(O)CCN(Cc5ccccc5)CC4)cc3n2C2CCC2)cc(OC)c1OC` , can you help?
Output line: 6.41

Input line: Check `COc1cc(-c2nc3ccc(C(=O)NCCN4CCN(C5CCCCC5)CC4)cc3n2C2CCC2)cc(OC)c1OC` too.
Output line: 5.68

Input line: Continue with `COc1cc(-c2nc3ccc(C(=O)NCCCN4CCN(C5CCCCC5)CC4)cc3n2C2CCC2)cc(OC)c1OC`
Output line: 6.45

----------
# Method: Metabolic stability in mouse liver microsomes
# Format: in vitro ADME
# Applied Conditions: some cells add hours in brackets
Experimental Readout: Metabolism MLM (min)
Please respond with the number in min and leave the unit unwritten.

Example entries and their recorded answers appear below.
CNC(=O)[C@H]1C[C@H](n2c(-c3ccc(OC)c(OC)c3)nc3ccc(C(=O)NCCCN4CCN(c5cccc(C)c5C)CC4)cc32)C1 3.7
CNC(=O)[C@H]1C[C@H](n2c(-c3cc(OC)c(OC)c(OC)c3)nc3ccc(C(=O)NCCCN4CCN(C)CC4)cc32)C1 48

Input line: Would you kindly share the measured Metabolism MLM for `COc1cc(-c2nc3ccc(C(=O)NCCCN4CCN(c5ccccc5)CC4)cc3n2C2CCC2)cc(OC)c1OC` ?
Output line: 6.3

Input line: Same lookup for `COc1cc(-c2nc3ccc(C(=O)NCCC(=O)N4CCN(c5cccc(C)c5C)CC4)cc3n2C2CCC2)cc(OC)c1OC` , please.
Output line: 9.3

----------
# Assay System: ACVR1^WT (Homo sapiens, UniProt Q04771)
# Method: Promega NanoBRET live-cell target engagement, ACVR1
# Applied Conditions: in cellulo; NI = No inhibition at 40 μM
Experimental Readout: IC50

Here are 2 molecules together with their reported answers.
CNC(=O)[C@H]1C[C@H](n2c(-c3cc(OC)c(OC)c(OC)c3)nc3ccc(C(=O)NCCCN(C)C)cc32)C1 > 40 µM
CNC(=O)[C@H]1C[C@H](n2c(-c3cc(OC)ccc3OC)nc3ccc(C(=O)NCCCN(C)C)cc32)C1 > 40 µM

Input line: Given the molecule `CNC(=O)[C@H]1C[C@H](n2c(-c3cc(OC)c(OC)c(OC)c3)nc3ccc(C(=O)NCCCN4CCN(C)CC4)cc32)C1` , what is its reported IC50?
Output line: > 40 µM

----------
Listed compounds paired with reported pIC50
# Assay System: ACVR1^R206H (Homo sapiens, UniProt Q04771, R206H)
# Sequence (Q04771 21-509 R206H): as the sequence (Q04771 21-509) above, with R186H counted along it
# Method: Promega NanoBRET live-cell target engagement, ACVR1 (R206H)
# Applied Conditions: in cellulo; NI = No inhibition at 40 μM
To interpret pIC50, take it as minus log10 of a concentration measured in moles per litre.

Input line: Would you kindly share the measured pIC50 for `COc1cc(-c2nc3ccc(C(=O)NCCCN4CCN(c5ccccc5)C(=O)C4)cc3n2C2CCC2)cc(OC)c1OC` ?
Output line: 5.64

Input line: And the next one, `COc1cc(-c2nc3ccc(C(=O)NCCCN4CCN(c5ccccc5)CC4)cc3n2C2CCC2)cc(OC)c1OC` ?
Output line: 5.59

Input line: Can you handle `COc1cc(F)cc(-c2nc3ccc(C(=O)NCCCN(C)C)cc3n2C2CCC2)c1` next?
Output line: 4.87

Input line: What do we get for `COc1cc(-c2nc3ccc(C(=O)NCCN4CCN(C5CCCCC5)CC4)cc3n2C2CCC2)cc(OC)c1OC` ?
Output line: 5.50
